ASSAY REMARKS: Toxicity in nude mouse xenografted with human GEO cells assessed as mortality at 12.5 mg/kg, po administered for 17 days relative to control
Format: organism-based
COND: in vivo, time 17 day
ASSAY ENDPOINT: mortality at 408 h (%)

> print(dat)
                              line.notation  quantitative.readout
1  C[C@@]1(C(=O)Nc2ccc(F)nc2)CCCN1c1nc(Nc2cc(C3CC3)n[nH]2)c2cccn2n1                     0

###

ASSAY REMARKS: Toxicity in nude mouse xenografted with human GEO cells assessed as mortality at 25 mg/kg, po administered for 3 days in presence of cetuximab at 0.125 mg/kg relative to control
Type: organism-based
COND: in vivo, time 3 day
ASSAY ENDPOINT: mortality at 72 h

> print(dat)
                              line.notation  result
1  C[C@@]1(C(=O)Nc2ccc(F)nc2)CCCN1c1nc(Nc2cc(C3CC3)n[nH]2)c2cccn2n1      0%
